These data points were gathered from paper PMC12716216.

test target: human serum albumin (HSA) (Homo sapiens, UniProt P02768)
Sequence (P02768 25-609): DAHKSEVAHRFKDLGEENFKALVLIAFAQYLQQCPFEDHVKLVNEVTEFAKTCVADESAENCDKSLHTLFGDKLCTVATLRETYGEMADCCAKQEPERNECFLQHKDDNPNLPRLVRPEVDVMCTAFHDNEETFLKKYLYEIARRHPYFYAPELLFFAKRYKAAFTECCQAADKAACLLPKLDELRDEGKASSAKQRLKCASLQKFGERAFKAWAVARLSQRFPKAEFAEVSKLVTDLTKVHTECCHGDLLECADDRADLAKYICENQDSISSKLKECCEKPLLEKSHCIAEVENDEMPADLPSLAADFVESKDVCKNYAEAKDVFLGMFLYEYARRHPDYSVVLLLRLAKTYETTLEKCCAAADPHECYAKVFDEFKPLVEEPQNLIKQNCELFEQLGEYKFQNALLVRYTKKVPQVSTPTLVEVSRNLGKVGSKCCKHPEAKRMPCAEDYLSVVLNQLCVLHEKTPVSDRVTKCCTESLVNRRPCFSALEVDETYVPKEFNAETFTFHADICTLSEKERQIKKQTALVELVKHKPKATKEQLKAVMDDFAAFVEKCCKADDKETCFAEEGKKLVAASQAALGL
protocol text: Fluorescence ligand titration of HSA: quenching of intrinsic protein (Trp214) fluorescence, fitted Kd, n and FRET efficiency
assay conditions: 5 µM HSA, PBS 1x; 295 nm excitation, IFE-corrected (carprofen: 280 nm)
property name: solute binding parameter n (Hill coefficient)

INSERT INTO results (compound, test_target, value_reported) VALUES
  ('O=C(O)COc1cccc2cccnc12', 'human serum albumin (HSA) (Homo sapiens, UniProt P02768)', 0.76),
  ('O=C(O)c1c2ccccc2nc2ccccc12', 'human serum albumin (HSA) (Homo sapiens, UniProt P02768)', 0.67),
  ('C[C@H](C(=O)O)c1ccc2c(c1)[nH]c1ccc(Cl)cc12 [(S)‐carprofen]', 'human serum albumin (HSA) (Homo sapiens, UniProt P02768)', 0.48),
  ('NCCNc1cccc2ccccc12', 'human serum albumin (HSA) (Homo sapiens, UniProt P02768)', 0.33),
  ('Oc1ccc2ccccc2c1', 'human serum albumin (HSA) (Homo sapiens, UniProt P02768)', 0.71);

----------
# Lookup of reported measured FRET efficiency keyed by entry
test target: human serum albumin (HSA) (Homo sapiens)
protocol text: Fluorescence ligand titration of HSA: quenching of intrinsic protein (Trp214) fluorescence, fitted Kd, n and FRET efficiency
assay conditions: from fluorescence data
property name: measured FRET efficiency (%)

INSERT INTO assay_data (compound, property_name, value_reported) VALUES
  ('O=C(O)COc1cccc2cccnc12', 'measured FRET efficiency', 60),
  ('C[C@H](C(=O)O)c1ccc2c(c1)[nH]c1ccc(Cl)cc12 [(S)‐carprofen]', 'measured FRET efficiency', 81),
  ('Oc1ccc2ccccc2c1', 'measured FRET efficiency', 80),
  ('O=C(O)c1c2ccccc2nc2ccccc12', 'measured FRET efficiency', 63),
  ('NCCNc1cccc2ccccc12', 'measured FRET efficiency', 55);

----------
test target: human serum albumin (HSA) (Homo sapiens)
protocol text: Fluorescence ligand titration of HSA: quenching of intrinsic protein (Trp214) fluorescence, fitted Kd, n and FRET efficiency
assay conditions: Kd, excitation 280 nm, IFE-corrected
# reported log10(Kd); entries follow
property name: log10(Kd) (log10 of the value in µM)

INSERT INTO measurements (query_smiles, test_target, value_reported) VALUES
  ('O=C(O)COc1cccc2cccnc12', 'human serum albumin (HSA) (Homo sapiens)', 1.87),
  ('Oc1ccc2ccccc2c1', 'human serum albumin (HSA) (Homo sapiens)', 1.81),
  ('Oc1cccc2ccccc12', 'human serum albumin (HSA) (Homo sapiens)', 2.11),
  ('NCCNc1cccc2ccccc12', 'human serum albumin (HSA) (Homo sapiens)', 0.59),
  ('O=C(O)c1c2ccccc2nc2ccccc12', 'human serum albumin (HSA) (Homo sapiens)', 1.24);

----------
test target: human serum albumin (HSA) (Homo sapiens, UniProt P02768)
protocol text: Fluorescence ligand titration of HSA: quenching of intrinsic protein (Trp214) fluorescence, fitted Kd, n and FRET efficiency
assay conditions: excitation 295 nm, no correction
Eexp reference
property name: Eexp

INSERT INTO results (molecule, test_target, property_name, value_reported) VALUES
  ('Oc1ccc2ccccc2c1', 'human serum albumin (HSA) (Homo sapiens, UniProt P02768)', 'Eexp', '0.82± 0.03'),
  ('O=C(O)c1c2ccccc2nc2ccccc12', 'human serum albumin (HSA) (Homo sapiens, UniProt P02768)', 'Eexp', '0.72± 0.02'),
  ('O=C(O)COc1cccc2cccnc12', 'human serum albumin (HSA) (Homo sapiens, UniProt P02768)', 'Eexp', '0.76± 0.01'),
  ('C[C@H](C(=O)O)c1ccc2c(c1)[nH]c1ccc(Cl)cc12 [(S)‐carprofen]', 'human serum albumin (HSA) (Homo sapiens, UniProt P02768)', 'Eexp', '0.71± 0.03'),
  ('NCCNc1cccc2ccccc12', 'human serum albumin (HSA) (Homo sapiens, UniProt P02768)', 'Eexp', '0.67± 0.03');
